This section presents compounds with their documented MIC values.
tested on: Mycobacterium tuberculosis; test: Antitubercular activity against extensive drug-resistant Mycobacterium tuberculosis clinical isolate 5 assessed as growth inhibition by microdilution method; assay type: functional

# SMILES, UNIT, MIC
measured = [
    ("NNC(=O)c1ccncc1", "µg/mL", 4),
    ("CC(=O)NC[C@H]1CN(c2ccc(N3CCOCC3)c(F)c2)C(=O)O1", "µg/mL", 0.25),
    ("COc1ccc(N2C[C@@H](COc3ccc(N4C[C@H](CNC(C)=O)OC4=O)cc3F)OC2=O)cc1", "µg/mL", 4),
    ("CC(=O)NC[C@H]1CN(c2ccc(OC[C@@H]3CN(c4ccccc4)C(=O)O3)c(F)c2)C(=O)O1", "µg/mL", 4),
]

###

system: Mycobacterium tuberculosis; assay: Antitubercular activity against extensive drug-resistant Mycobacterium tuberculosis clinical isolate 4 assessed as growth inhibition by microdilution method; assay type: functional
PROPERTY: MIC (µg/mL)

# COMPOUND, PROPERTY, EXPERIMENTAL_RESULT
rows = [
    ("COc1ccc(N2C[C@@H](COc3ccc(N4C[C@H](CNC(C)=O)OC4=O)cc3F)OC2=O)cc1", "MIC", 4),
    ("NNC(=O)c1ccncc1 [ISONIAZID]", "MIC", 2),
    ("CC(=O)NC[C@H]1CN(c2ccc(N3CCOCC3)c(F)c2)C(=O)O1 [LINEZOLID]", "MIC", 1),
    ("CC(=O)NC[C@H]1CN(c2ccc(OC[C@@H]3CN(c4ccccc4)C(=O)O3)c(F)c2)C(=O)O1", "MIC", 4),
]
